Target: unphosphorylated VEGF-R2Δ50 (FLVK) (Homo sapiens, UniProt P35968, DEL940-989/E990V)
Construct: VEGF-R2Δ50 contains residues 806-939 and 990-1171; made in house; host or cells: baculovirus/insect cell system
Sequence (P35968 with tags, fused parts or gaps DEL940-989/E990V limits assumed): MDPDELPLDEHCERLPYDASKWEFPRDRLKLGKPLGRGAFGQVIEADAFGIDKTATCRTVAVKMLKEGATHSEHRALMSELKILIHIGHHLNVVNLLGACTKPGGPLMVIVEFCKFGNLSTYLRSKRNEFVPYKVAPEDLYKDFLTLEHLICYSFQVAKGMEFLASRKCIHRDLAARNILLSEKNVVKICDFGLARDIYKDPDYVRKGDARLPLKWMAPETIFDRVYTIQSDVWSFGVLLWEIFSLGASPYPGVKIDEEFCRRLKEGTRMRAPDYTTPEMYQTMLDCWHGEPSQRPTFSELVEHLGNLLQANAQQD
Assay: VEGF-R2 coupled spectrophotometric assay, unphosphorylated construct (FLVK)
Assay type: biochemical
Conditions: percent inhibition at 50 nM
Readout Type: inhibition at 0.05 µM (%)

1. CNC(=O)n1c(C)c(Cl)c2c(F)c(Oc3ccnc4cc(C(=O)N5CC[C@H](OC)C5)sc34)ccc21 ... 99
2. Cc1cc2cc(Oc3ccnc4cc(C(=O)N5CC[C@@H](N(C)C)C5)sc34)ccc2n1C(=O)NCCCO ... 99
3. Cc1cc2cc(Nc3ccnc4cc(-c5nc(C(C)(C)O)cs5)sc34)ccc2n1C(=O)NC1CC1 ... 95
4. CNC(=O)n1c(C)cc2cc(Oc3ccnc4cc(C(=O)N5CCC5)sc34)ccc21 ... 99
5. Cc1cc2cc(Oc3ccnc4cc(C(=O)N5C[C@@H](O)[C@@H](O)C5)sc34)ccc2n1C(=O)NC1CC1 ... 98
6. CNC(=O)n1c(C)cc2cc(Oc3ccnc4cc(C(=O)N5C[C@H](OC)C[C@H]5CO)sc34)ccc21 ... 93
7. C#CCNC(=O)n1c(C)cc2cc(Nc3ccnc4cc(C(=O)N5CC[C@H](OC)C5)sc34)ccc21 ... 94
8. C#CCNC(=O)n1c(C)cc2c(F)c(Oc3ccnc4cc(C(=O)N5CC[C@@H](O)C5)sc34)ccc21 ... 100
9. Cc1cc2c(F)c(Oc3ccnc4cc(C(=O)N5CC[C@H](O)C5)sc34)ccc2n1C(=O)NC1CC1 ... 100
10. CNC(=O)n1c(C)cc2c(F)c(Oc3ccnc4cc(C(=O)N5CC[C@H](O)C5)sc34)ccc21 ... 97
11. C#CCNC(=O)n1c(C)cc2cc(Nc3ccnc4cc(C(=O)N5CC[C@H](O)C5)sc34)ccc21 ... 96
